# Species on record: Canis familiaris
# assay name: In vitro test for the induction of the production of methemoglobin (MHb) in dog blood
# Format: functional, Canis lupus familiaris
property name: ED25 (µM)

[[record]]
smiles_code = "CCCCCNC(=O)c1cccc2n[nH]c(O)c12"
property_name = "ED25"
limit_sign = ">"
value_reported = 250

[[record]]
smiles_code = "CCCCCNC(=O)c1cccc2[nH]n(Cc3cccnc3)c(=O)c12"
property_name = "ED25"
limit_sign = ">"
value_reported = 250

[[record]]
smiles_code = "O=c1c2ccccc2[nH]n1Cc1cccnc1"
property_name = "ED25"
limit_sign = "="
value_reported = 7.5

[[record]]
smiles_code = "CCCCCNC(=O)c1cccc2[nH]n(C)c(=O)c12"
property_name = "ED25"
limit_sign = ">"
value_reported = 250

[[record]]
smiles_code = "Cn1[nH]c2ccccc2c1=O"
property_name = "ED25"
limit_sign = "="
value_reported = 10

[[record]]
smiles_code = "Oc1n[nH]c2ccccc12"
property_name = "ED25"
limit_sign = "="
value_reported = 40


====

# test target: Cyclooxygenase (Rattus norvegicus, UniProt P35355+Q63921)
# assay name: In vitro inhibition of PGE-2 production was measured in rat blood
# Assay type: functional
property name: IC50 (µM)

[[record]]
smiles_code = "O=c1c2ccccc2[nH]n1CCCc1ccccc1"
value_reported = 3.8

[[record]]
smiles_code = "Cn1[nH]c(=O)c2ccccc21"
value_reported = 20

[[record]]
smiles_code = "O=c1c2ccccc2[nH]n1Cc1ccc2ccccc2c1"
value_reported = 18

[[record]]
smiles_code = "O=c1c2ccccc2[nH]n1Cc1ccco1"
value_reported = 13

[[record]]
smiles_code = "O=c1c2ccccc2[nH]n1CCc1ccccc1"
value_reported = 15


====

# test target: Cyclooxygenase (Rattus norvegicus, UniProt P35355+Q63921)
# assay name: In vitro inhibition of PGE-2 production was measured in rat blood
# Assay type: functional
Could you please mark label 1 for values of IC50 below 30 µM and label 0 for values at or above it?

[[record]]
smiles_code = "O=c1c2ccccc2[nH]n1-c1ccccc1"
test_target = "Cyclooxygenase (Rattus norvegicus, UniProt P35355+Q63921)"
assigned_class = "label 1"

[[record]]
smiles_code = "O=c1c2ccccc2[nH]n1Cc1cccs1"
test_target = "Cyclooxygenase (Rattus norvegicus, UniProt P35355+Q63921)"
assigned_class = "label 1"

[[record]]
smiles_code = "C[C@@H](c1cccc2ccccc12)n1[nH]c2ccccc2c1=O"
test_target = "Cyclooxygenase (Rattus norvegicus, UniProt P35355+Q63921)"
assigned_class = "label 0"

[[record]]
smiles_code = "O=c1c2ccccc2[nH]n1Cc1cccc2ccccc12"
test_target = "Cyclooxygenase (Rattus norvegicus, UniProt P35355+Q63921)"
assigned_class = "label 0"

[[record]]
smiles_code = "O=c1c2ccccc2[nH]n1Cc1cccnc1"
test_target = "Cyclooxygenase (Rattus norvegicus, UniProt P35355+Q63921)"
assigned_class = "label 0"

[[record]]
smiles_code = "O=c1[nH]n(Cc2ccccc2)c2ccccc12"
test_target = "Cyclooxygenase (Rattus norvegicus, UniProt P35355+Q63921)"
assigned_class = "label 0"

[[record]]
smiles_code = "O=c1c2ccccc2[nH]n1Cc1cncs1"
test_target = "Cyclooxygenase (Rattus norvegicus, UniProt P35355+Q63921)"
assigned_class = "label 0"


====

# test target: Polyunsaturated fatty acid 5-lipoxygenase (Rattus norvegicus)
# Sequence (P12527 whole entry): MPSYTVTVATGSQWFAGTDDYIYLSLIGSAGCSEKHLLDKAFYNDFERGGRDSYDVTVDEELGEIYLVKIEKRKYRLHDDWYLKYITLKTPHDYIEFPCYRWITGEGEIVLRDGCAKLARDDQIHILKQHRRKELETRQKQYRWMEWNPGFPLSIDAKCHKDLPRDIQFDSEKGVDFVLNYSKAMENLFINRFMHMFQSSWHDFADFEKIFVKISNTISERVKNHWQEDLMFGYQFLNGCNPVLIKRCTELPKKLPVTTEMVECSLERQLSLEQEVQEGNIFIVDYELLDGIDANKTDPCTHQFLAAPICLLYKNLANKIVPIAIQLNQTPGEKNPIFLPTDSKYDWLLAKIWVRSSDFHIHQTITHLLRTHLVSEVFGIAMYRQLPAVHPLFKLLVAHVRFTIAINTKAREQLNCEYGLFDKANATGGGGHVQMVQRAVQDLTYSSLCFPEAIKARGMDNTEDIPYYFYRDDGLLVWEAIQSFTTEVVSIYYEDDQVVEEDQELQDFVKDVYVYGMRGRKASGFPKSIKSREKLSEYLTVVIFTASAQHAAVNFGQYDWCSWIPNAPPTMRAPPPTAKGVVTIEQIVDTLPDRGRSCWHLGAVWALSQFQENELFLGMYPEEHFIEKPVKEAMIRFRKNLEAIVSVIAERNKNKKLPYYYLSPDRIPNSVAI
# assay name: In vitro inhibition of LTB4 production was measured in rat blood
# Format: functional
pIC50: −log10 of the molar value.
Decide using pIC50: a value greater than or equal to 6 is T, a smaller one is F.

[[record]]
smiles_code = "O=c1c2ccccc2[nH]n1Cc1ccc(Cl)nc1"
assigned_class = "T"

[[record]]
smiles_code = "O=c1[nH]n(-c2ccccc2)c2ccccc12"
assigned_class = "F"

[[record]]
smiles_code = "O=c1[nH]n(Cc2ccccc2)c2ccccc12"
assigned_class = "F"

[[record]]
smiles_code = "O=c1c2ccccc2[nH]n1CCCc1ccccc1"
assigned_class = "T"

[[record]]
smiles_code = "Cn1c(=O)c2ccccc2n1Cc1ccccc1"
assigned_class = "F"

